FYI, the data here is from ChEMBL document CHEMBL1201862.

Readings of EC50 for the listed molecules
- targetUnderTest: Luciferin 4-monooxygenase (Photinus pyralis)
- Sequence (P08659 whole entry): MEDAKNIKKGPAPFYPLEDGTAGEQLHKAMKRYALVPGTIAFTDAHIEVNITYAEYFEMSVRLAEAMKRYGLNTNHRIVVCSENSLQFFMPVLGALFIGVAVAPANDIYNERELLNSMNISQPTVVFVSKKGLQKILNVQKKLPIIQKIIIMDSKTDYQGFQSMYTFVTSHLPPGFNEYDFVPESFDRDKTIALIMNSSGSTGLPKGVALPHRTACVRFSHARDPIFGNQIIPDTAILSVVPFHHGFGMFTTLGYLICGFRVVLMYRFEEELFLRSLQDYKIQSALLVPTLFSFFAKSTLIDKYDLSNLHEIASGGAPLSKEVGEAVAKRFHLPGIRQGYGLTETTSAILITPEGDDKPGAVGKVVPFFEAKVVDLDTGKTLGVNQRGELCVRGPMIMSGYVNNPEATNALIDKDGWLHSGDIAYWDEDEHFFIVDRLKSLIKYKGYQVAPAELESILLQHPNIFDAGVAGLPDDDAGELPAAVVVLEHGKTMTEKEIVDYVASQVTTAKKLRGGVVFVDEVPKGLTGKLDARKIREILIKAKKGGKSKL
- assayProcedure: inhibition of purified Photinus pyralis luciferase – biochemical, luminescence, dose response (AID 1891)
Calls of active or inactive are those of the source. Rule as the data show it: actives have a measured EC50 and inactives only a lower limit.

Known results for molecules:
>>> df
                                   molecule         recordedresult
0        C=C(C)CNC(=S)N/N=C(\C)c1ccc(OC)cc1  > 112 µM (not active)
1               Cc1ccccc1Nc1nc(N)c2ccccc2n1       1.26 µM (active)
2  O=C(CN(CCCN1CCOCC1)C(=O)Cn1nnc(-c2ccc(F)cc2)n1)NC1CCCCC1  > 112 µM (not active)

// next item, EC50 requested
Lookup: Please give the measured EC50 for this molecule: O=C1c2ccccc2C(Nc2ccc3c(c2)OCO3)N1Cc1ccco1 (stereo not given)
Found: > 112 µM (not active)
